System: TANOUE;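 also: ALL cell lines in 384-well plates, five doses spanning 10,000-fold, each plate scaled between vehicle and 100 µmol/L benzalkonium chloride controls, sDSS an adapted area-under-curve metric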
method: selective drug sensitivity score (sDSS, relative to normal bone marrow) (sDSS (score)); higher = more potent and effective on the cell line relative to normal bone marrow cells
condition-details: 72 h
reported-metric: selective drug sensitivity score
Give only the figure.

Find the measured selective drug sensitivity score of CC(C)NC(=O)COc1cccc(-c2nc(Nc3ccc4[nH]ncc4c3)c3ccccc3n2)c1 [KD025] (top concentration 5000 nM) and report it.
-5.36

Give the measured selective drug sensitivity score for CN(C)CCOc1ccc(/C(=C(/CCCl)c2ccccc2)c2ccccc2)cc1 [Toremifene] (top concentration 10000 nM)
-2.62

Indicate its recorded selective drug sensitivity score; the compound in question is N#Cc1ccnc(N2C(=O)CC[C@H]2C(=O)N(c2cncc(F)c2)[C@H](C(=O)NC2CC(F)(F)C2)c2ccccc2Cl)c1 [Ivosidenib] (top concentration 10000 nM)
0

Specify measured selective drug sensitivity score for CN[C@@H](C)C(=O)N[C@H]1CN(C(=O)CC(C)C)CC[C@H]2CC[C@@H](C(=O)NC(c3ccccc3)c3ccccc3)N2C1=O [AT-406] (top concentration 10000 nM) .
-1.26

Report selective drug sensitivity score for Cn1c(Nc2ccc(C(F)(F)F)cc2)nc2cc(Oc3ccnc(-c4ncc(C(F)(F)F)[nH]4)c3)ccc21 [NVP-RAF265] (top concentration 1000 nM)
0.68

Please report the measured selective drug sensitivity score for COc1cc2c(Oc3ccc4[nH]c(C)cc4c3F)ncnc2cc1OCCCN1CCCC1 [Cediranib] (top concentration 1000 nM)
0
